- tested-target: neuropeptide Y2 receptor (UniProt P49146)
- Sequence (P49146 whole entry): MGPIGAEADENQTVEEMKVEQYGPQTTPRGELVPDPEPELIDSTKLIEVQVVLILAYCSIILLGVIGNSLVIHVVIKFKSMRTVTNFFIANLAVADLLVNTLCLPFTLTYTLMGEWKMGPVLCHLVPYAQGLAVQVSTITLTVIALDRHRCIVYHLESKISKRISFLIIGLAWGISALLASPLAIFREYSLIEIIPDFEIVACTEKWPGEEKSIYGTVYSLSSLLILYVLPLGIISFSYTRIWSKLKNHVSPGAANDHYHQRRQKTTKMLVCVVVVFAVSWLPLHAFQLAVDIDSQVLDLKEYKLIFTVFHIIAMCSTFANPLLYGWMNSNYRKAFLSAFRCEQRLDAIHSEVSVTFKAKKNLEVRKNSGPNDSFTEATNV
- assay-comment: [125I]-human PYY displacement, SK-N-BE membranes
measurement-name: Receptor Binding
Give bare numbers.

In the examples that follow, each entry is paired with its recorded Receptor Binding.
In [3]: df
Out[3]:
                                  substance  value_reported
0  [Asp(#)-miniPEG-Gly-PYY (3-36), amide] [#Cys-Gly-Gly-PYY (3-36), amide] (peptide)             0.8
1  [#Cys-Gly-Gly-PYY (3-36), amide] [Asp(#)-miniPEG3-Gly-PYY (3-36), amide] (peptide)             0.8
2  [#Des-Lys1 Compound 10, amide] (Asp(#)-Pro-Pro-Pro-Pro-Pro-Pro-PYY (3-36), amide (peptide)             0.5

// next entry
stdin: Name the recorded Receptor Binding of the substance listed here: [#Cys-Gly-Gly-PYY (3-36), amide] [Asp(#)-Pro-Pro-Pro-Pro-Pro-Pro-PYY (3-36), amide] (peptide)
stdout: 0.8
